Test system: anti-miR-21 oligo(2′-O-methylribonucleotide)
Experiment: DLS of dendriplexes with anti-miR-21 oligonucleotide
Assay type: physicochemical
Conditions: CR 5, anti-miR-21 500 nM, 0.9% NaCl
Description: Dendriplexes were characterized by DLS using Zetasizer Nano-S (Malvern Panalytical, UK) equipped with a 632.8 nm laser, applying detection angle 173°. Mean diameters from the intensity-weighted size distribution are given. Average results from three consecutive sets of measurements generated by Malvern Zetasizer Software version 7.13 are presented. Amphiphilic dendrons (1.5–73 μM) were mixed with the anti-miR-21:5′-m([…]) (500 nM) in 0.9% NaCl solution in milli-Q water. […]
Reported mean diameter of dendriplex values for a set of compounds

# STRUCTURE SMILES, TARGET, mean diameter of dendriplex
records = [
    ("CCCCCCCCCCCCNC(=O)c1cc(OCCC[Si](CCCSCC(=O)NCCC[P+](c2ccccc2)(c2ccccc2)c2ccccc2)(CCCSCC(=O)NCCC[P+](c2ccccc2)(c2ccccc2)c2ccccc2)CCCSCC(=O)NCCC[P+](c2ccccc2)(c2ccccc2)c2ccccc2)cc(C(=O)NCCCCCCCCCCCC)c1", "anti-miR-21 oligo(2′-O-methylribonucleotide)", "1.0 μm"),
    ("CCCCCCCCCCCCNC(=O)c1ccc(OCCC[Si](CCCSCC(=O)NCCC[P+](c2ccccc2)(c2ccccc2)c2ccccc2)(CCCSCC(=O)NCCC[P+](c2ccccc2)(c2ccccc2)c2ccccc2)CCCSCC(=O)NCCC[P+](c2ccccc2)(c2ccccc2)c2ccccc2)cc1", "anti-miR-21 oligo(2′-O-methylribonucleotide)", "> 1 μm"),
    ("CCCCCCCCCCCCCCCCCCNC(=O)c1cc(OCCC[Si](CCCSCC(=O)NCCC[P+](c2ccccc2)(c2ccccc2)c2ccccc2)(CCCSCC(=O)NCCC[P+](c2ccccc2)(c2ccccc2)c2ccccc2)CCCSCC(=O)NCCC[P+](c2ccccc2)(c2ccccc2)c2ccccc2)cc(C(=O)NCCCCCCCCCCCCCCCCCC)c1", "anti-miR-21 oligo(2′-O-methylribonucleotide)", "> 1 μm"),
    ("CCCCCCCCCCCCNC(=O)c1cc(OCCC[Si](CCCSCC(=O)NCCC[P+](c2ccccc2)(c2ccccc2)c2ccccc2)(CCCSCC(=O)NCCC[P+](c2ccccc2)(c2ccccc2)c2ccccc2)CCCSCC(=O)NCCC[P+](c2ccccc2)(c2ccccc2)c2ccccc2)cc(OCCC[Si](CCCSCC(=O)NCCC[P+](c2ccccc2)(c2ccccc2)c2ccccc2)(CCCSCC(=O)NCCC[P+](c2ccccc2)(c2ccccc2)c2ccccc2)CCCSCC(=O)NCCC[P+](c2ccccc2)(c2ccccc2)c2ccccc2)c1", "anti-miR-21 oligo(2′-O-methylribonucleotide)", "0.8 μm"),
    ("CCCCCCCCCCCCCCCCCCNC(=O)c1cc(OCCC[Si](CCCSCC(=O)NCCC[P+](c2ccccc2)(c2ccccc2)c2ccccc2)(CCCSCC(=O)NCCC[P+](c2ccccc2)(c2ccccc2)c2ccccc2)CCCSCC(=O)NCCC[P+](c2ccccc2)(c2ccccc2)c2ccccc2)cc(OCCC[Si](CCCSCC(=O)NCCC[P+](c2ccccc2)(c2ccccc2)c2ccccc2)(CCCSCC(=O)NCCC[P+](c2ccccc2)(c2ccccc2)c2ccccc2)CCCSCC(=O)NCCC[P+](c2ccccc2)(c2ccccc2)c2ccccc2)c1", "anti-miR-21 oligo(2′-O-methylribonucleotide)", "> 1 μm"),
    ("CCCCCCCCCCCCCCCCCCNC(=O)c1ccc(OCCC[Si](CCCSCC(=O)NCCC[P+](c2ccccc2)(c2ccccc2)c2ccccc2)(CCCSCC(=O)NCCC[P+](c2ccccc2)(c2ccccc2)c2ccccc2)CCCSCC(=O)NCCC[P+](c2ccccc2)(c2ccccc2)c2ccccc2)cc1", "anti-miR-21 oligo(2′-O-methylribonucleotide)", "> 1 μm"),
]
